condition description: Liquid; Ebulliometric method (Recirculating still)
value kind: Normal boiling temperature (°C)
Kindly answer with a numeric value in °C, unit omitted.

Example compounds with recorded Normal boiling temperature:
Cc1cc(C)c2ccccc2c1	265.1
Cc1ccc(C)c2ccccc12	265.1
Cc1ccc2ccccc2c1	241.1

Entry `Cc1cccc2ccccc12` — recorded Normal boiling temperature = 244.6

Entry `CCc1ccc2ccccc2c1` — recorded Normal boiling temperature = 254.1

----------
# key: entry, value: Critical pressure
condition description: Liquid; Direct measurement
Kindly answer with a numeric value in kPa, unit omitted.

Example molecules with recorded Critical pressure:
Cc1ccc(C)c2ccccc12	2790
CCc1ccc2ccccc2c1	2790

Entry `Cc1cc(C)c2ccccc2c1` — recorded Critical pressure = 2740

Entry `Cc1ccc2ccccc2c1` — recorded Critical pressure = 3300

Entry `Cc1cccc2ccccc12` — recorded Critical pressure = 3540

----------
# key: entry, value: Critical temperature
condition description: Liquid; Visual observation in a stirred cell
Kindly answer with a numeric value in K, unit omitted.

Entry `Cc1ccc(C)c2ccccc12` — recorded Critical temperature = 778

Entry `Cc1cc(C)c2ccccc2c1` — recorded Critical temperature = 772

----------
# key: entry, value: Critical temperature
condition description: Liquid; Visual observation in a stirred cell
Kindly answer with a numeric value in K, unit omitted.

Example compounds with recorded Critical temperature:
CCc1ccc2ccccc2c1 [2-ethylnaphthalene]	763
Cc1cccc2ccccc12 [1-methylnaphthalene]	773

Now let's try a different one.
Entry Cc1ccc2ccccc2c1 [2-methylnaphthalene] — recorded Critical temperature = 755
